# EXPERIMENT NOTES: A549 cell viability effects, profiling panel, calcein-AM fluorescence, 48 h, basal (AID 1162); further: test concentration not given here
# ASSAY SETUP: higher = more signal
Would you please tag the item Satisfied when its z-score is -0.05 or above, and Not satisfied when it is below?

Use these answered entries as a reference point.
[
  {
    "COMPOUND": "COc1cccc(/C=C/C=O)c1",
    "CATEGORY LABEL": "Satisfied"
  },
  {
    "COMPOUND": "[N-]=[N+]=NCc1ccccc1[C@@H]1OC(c2ccc(OCCCO)cc2)=N[C@]1(CCS(=O)(=O)c1ccccc1)C(=O)NCC(O)CO (stereo not given in full)",
    "CATEGORY LABEL": "Satisfied"
  },
  {
    "COMPOUND": "COC(=O)[C@@]1(Cc2ccc(F)cc2)[C@H]2c3cc(C(=O)N(C)C)n(CCc4ccc(O)c(OC)c4)c3C[C@H]2CN1C(=O)c1ccccc1",
    "CATEGORY LABEL": "Satisfied"
  },
  {
    "COMPOUND": "CCC[C@@H]1C[C@@]1(CCC)[C@@H](NC(=O)OCc1ccccc1)c1ccc(-c2ccccc2)cc1",
    "CATEGORY LABEL": "Not satisfied"
  },
  {
    "COMPOUND": "C=C(COC)/C(=C/C[C@H](OC(C)=O)c1ccc(OCCO)cc1)c1cc(C(=O)OC)ccc1OC",
    "CATEGORY LABEL": "Satisfied"
  },
  {
    "COMPOUND": "C=CCC(OC(C)=O)[C@@H]1[C@@H](N(Cc2cc3ccccc3o2)C(=O)c2ccc(C)cc2)c2cc(OCCCO)ccc2N1C(=O)Cc1ccc(OC)cc1 (stereo not given in full)",
    "CATEGORY LABEL": "Satisfied"
  },
  {
    "COMPOUND": "CC(C)N1C(=O)c2ccccc2[C@@H](C(=O)NC2CC2)[C@@H]1c1ccc(CO)cc1",
    "CATEGORY LABEL": "Satisfied"
  },
  {
    "COMPOUND": "O=C1C2C=CC(C(O)c3ccc(Br)cc3)N(Nc3ccccc3F)C2C(=O)N1c1ccccc1 (stereo not given)",
    "CATEGORY LABEL": "Satisfied"
  }
]

Prompt: Is z-score for `NC(=O)NCC#Cc1ccc2c(c1)[C@]1(C(=O)N2)[C@H](C(=O)O)[C@H]2C(=O)O[C@H](c3ccccc3)[C@H](c3ccccc3)N2[C@@H]1c1ccc(OCCO)cc1` at or above -0.05?
Completion: Satisfied

Prompt: Let us now turn to `COC(=O)[C@@]1(Cc2ccc(OC)cc2)[C@H]2c3cc(C(=O)N4CCCC4)n(Cc4c(-c5ccccc5)noc4C)c3C[C@H]2CN1C(=O)c1ccccc1`
Completion: Not satisfied

Prompt: Can you handle `O=C1N(Cc2ccccc2)c2ccccc2[C@@H]2OC(c3ccc(OCCCO)cc3)=N[C@]12Cc1ccccc1` next?
Completion: Not satisfied

Prompt: What do you get for `[N-]=[N+]=Nc1ccccc1C[C@]1(C(N)=O)N=C(c2ccc(OCCCO)cc2)O[C@H]1c1ccccc1N=[N+]=[N-]` ?
Completion: Not satisfied

Prompt: One more compound: CN1C(=O)C2C=CC(C(O)c3cccc4ccccc34)N(N3CCCCC3)C2C1=O (stereo not given)
Completion: Not satisfied

Prompt: Follow-up entry: `CO[C@H]1O[C@H](CO)[C@@H](OC(=O)Nc2ccccc2-c2ccccc2)[C@H](OC(=O)Nc2ccc3c(c2)OCO3)[C@H]1OC(=O)Nc1ccc2c(c1)OCO2`
Completion: Satisfied
